This collection of values is drawn from patent US20100297073A1.

assayed.target: HCV polymerase (NS5B570n-Con1) (Hepatitis C virus genotype 1b, UniProt Q9WMX2)
Construct: contains a 21 amino acid deletion at the C-terminus relative to the full-length HCV polymerase; 6-histidine (N)
protocol.text: biochemical
measured.metric: pIC50
Note on units: pIC50 is unitless, being -log10 of a concentration expressed in mol/L.

Recorded pIC50 for COc1c(C2=CCc3cc(NS(C)(=O)=O)ccc3O2)cc(-c2ccc[nH]c2=O)cc1C(C)(C)C [Compound I-2] , please? 7.85

Then COc1c(-c2cc3ccc(NS(C)(=O)=O)cc3c(=O)o2)cc(-c2cc(F)c[nH]c2=O)cc1C1(C(F)F)CC1 [Compound I-15] ? 9.70

// repeat for COc1c(C2Cc3ccc(NS(C)(=O)=O)cc3C(=O)O2)cc(-c2ccc[nH]c2=O)cc1C(C)(C)C (stereo not shown) [Compound I-9] and report 8.22

Query COc1c(-c2cc(=O)c3cc(NS(C)(=O)=O)ccc3o2)cc(-c2ccc[nH]c2=O)cc1C(C)(C)C [Compound I-1] next 8.52
